Measured On: Recombinant CYP3A4 Supersomes (Homo sapiens, UniProt P08684)
Construct: purchased
Sequence (P08684 whole entry): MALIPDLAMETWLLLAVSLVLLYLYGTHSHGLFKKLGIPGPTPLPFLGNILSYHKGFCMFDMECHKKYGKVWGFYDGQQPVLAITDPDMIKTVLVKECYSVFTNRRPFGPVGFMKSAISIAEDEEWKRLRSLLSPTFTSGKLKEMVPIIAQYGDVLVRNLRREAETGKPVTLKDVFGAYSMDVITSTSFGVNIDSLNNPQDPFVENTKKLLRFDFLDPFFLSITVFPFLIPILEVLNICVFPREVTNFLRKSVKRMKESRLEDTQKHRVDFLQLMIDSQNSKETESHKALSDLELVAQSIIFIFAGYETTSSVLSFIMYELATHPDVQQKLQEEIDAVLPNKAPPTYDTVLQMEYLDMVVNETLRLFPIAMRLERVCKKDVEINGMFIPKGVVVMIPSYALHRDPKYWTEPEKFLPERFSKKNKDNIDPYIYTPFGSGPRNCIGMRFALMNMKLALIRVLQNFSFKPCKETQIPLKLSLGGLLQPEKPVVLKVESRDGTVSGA
Test Summary: Recombinant CYP3A4 Clearance Assay
Format: in vitro ADME
Condition: observed CLint divided by average CLint of undeuterated control compound
Measurement Kind: % of Control (intrinsic clearance relative to the control compound) (%)

>  <Chemical Structure>
[2H]C1([2H])CC(CNC(=O)c2cc(F)cc(Cl)c2)CC([2H])([2H])N1CC(=O)NC(C([2H])([2H])[2H])(C([2H])([2H])[2H])C([2H])([2H])[2H]

>  <Unit Abbreviation>
%

>  <Quantitative Readout>
61.4

$$$$
>  <Chemical Structure>
[2H]C([2H])([2H])C(C)(NC(=O)CN1C([2H])([2H])C([2H])([2H])C([2H])(CNC(=O)c2cc(F)cc(Cl)c2)C([2H])([2H])C1([2H])[2H])C([2H])([2H])[2H]

>  <Unit Abbreviation>
%

>  <Quantitative Readout>
61.5

$$$$
>  <Chemical Structure>
[2H]C([2H])([2H])C(C)(C)NC(=O)CN1CCC(CNC(=O)c2cc(F)cc(Cl)c2)CC1

>  <Unit Abbreviation>
%

>  <Quantitative Readout>
100

$$$$
>  <Chemical Structure>
[2H]C([2H])(C(=O)NC(C)(C([2H])([2H])[2H])C([2H])([2H])[2H])N1CCC(CNC(=O)c2cc(F)cc(Cl)c2)CC1

>  <Unit Abbreviation>
%

>  <Quantitative Readout>
72.2

$$$$
>  <Chemical Structure>
[2H]C([2H])(NC(=O)c1cc(F)cc(Cl)c1)C1CCN(CC(=O)NC(C)(C)C([2H])([2H])[2H])CC1

>  <Unit Abbreviation>
%

>  <Quantitative Readout>
81.1

$$$$
>  <Chemical Structure>
[2H]C1([2H])CC(CNC(=O)c2cc(F)cc(Cl)c2)CC([2H])([2H])N1CC(=O)NC(C)(C)C

>  <Unit Abbreviation>
%

>  <Quantitative Readout>
68.5

$$$$

----------
Measured On: Recombinant CYP3A4 Supersomes (Homo sapiens, UniProt P08684)
Construct: purchased
Test Summary: Recombinant CYP3A4 Clearance Assay
Type: in vitro ADME
Condition: recombinant CYP3A4 50 pmol/mL, 1 μM substrate, NADPH, 0-120 minutes
Returns one of MET or NOT MET; MET when Half-Life is >= 10 min.

>  <Compound>
[2H]C([2H])([2H])C(C)(NC(=O)CN1C([2H])([2H])C([2H])([2H])C([2H])(CNC(=O)c2cc(F)cc(Cl)c2)C([2H])([2H])C1([2H])[2H])C([2H])([2H])[2H] [Compound 20]

>  <Assigned Label>
MET

$$$$
>  <Compound>
[2H]C([2H])(C(=O)NC(C([2H])([2H])[2H])(C([2H])([2H])[2H])C([2H])([2H])[2H])N1CCC(CNC(=O)c2cc(F)cc(Cl)c2)CC1 [Compound 15]

>  <Assigned Label>
NOT MET

$$$$
>  <Compound>
[2H]C([2H])(NC(=O)c1cc(F)cc(Cl)c1)C1CCN(CC(=O)NC(C)(C)C([2H])([2H])[2H])CC1 [Compound 10]

>  <Assigned Label>
NOT MET

$$$$
>  <Compound>
[2H]C([2H])([2H])C(C)(C)NC(=O)CN1CCC(CNC(=O)c2cc(F)cc(Cl)c2)CC1 [Compound 7]

>  <Assigned Label>
NOT MET

$$$$
>  <Compound>
[2H]C([2H])(C(=O)NC(C)(C([2H])([2H])[2H])C([2H])([2H])[2H])N1CCC(CNC(=O)c2cc(F)cc(Cl)c2)CC1 [Compound 17]

>  <Assigned Label>
MET

$$$$
